These entries and their values trace back to paper PMC11249646.

Would you mind telling me the reported IC50 of each entry?
TARGET_OR_TEST_SYSTEM: CIB1 and αIIb interaction (CIB1-GST : F-αIIb peptide) (Homo sapiens)
Construct: made in house; host or cells: BL-21 plus RIL cells (E. coli)
Sequence (Q99828 whole entry): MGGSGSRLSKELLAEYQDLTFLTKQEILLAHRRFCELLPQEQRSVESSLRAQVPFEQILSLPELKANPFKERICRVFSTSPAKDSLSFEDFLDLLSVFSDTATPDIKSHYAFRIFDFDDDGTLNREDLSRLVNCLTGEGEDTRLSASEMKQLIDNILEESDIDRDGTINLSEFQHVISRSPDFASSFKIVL
PROTOCOL_DESCRIPTION: FP assay, 1536-well qHTS format (primary and confirmatory screen)
Type: binding
CONDITION_PARAMETERS: confirmatory screen; read-out: IC50 [μM] (confirmatory screen)
Numbers only, in µM.

Consider the reported IC50 for these compounds:
CSc1cc2c(s1)c1cnn(Cc3cccc(N)c3)c(=O)c1n2C.O=C(O)C(F)(F)F [NCGC00188341-01]    39.8
C=CC1=C(C)c2cc3[nH]c(cc4nc(cc5[nH]c(cc1n2)c(C)c5CCC(=O)O)C(CCC(=O)O)=C4C)c(C)c3C=C [NCGC00015844-07]    25.1
Oc1ccc(Cl)cc1Cc1cc(Cl)ccc1O [NCGC00091325-09]    44.7
NC(=O)c1ccnc2c(O)cccc12.O=C(O)C(F)(F)F [NCGC00183783-01]    50.1
Nc1ccc(O)c([N+](=O)[O-])c1 [NCGC00091261-03]    50.1

State the recorded IC50 for every item in the following list.
1. COc1ccc(NC(=O)c2[nH]c(C)c(C(C)=O)c2C)cc1S(=O)(=O)Nc1ccccc1C#N [NCGC00348145-01]
2. CN1C[C@H](CNC(=O)OCc2ccccc2)C[C@@H]2c3cccc4c3c(cn4C)C[C@H]21 [NCGC00017257-10]
3. CCOC(=O)C1CCN(C(=O)C(C)(C)NC(=O)Nc2ccc(C#N)cc2)CC1.O=C(O)C(F)(F)F [NCGC00242565-01]

1: 35.5; 2: 44.7; 3: 7.9
